experiment: protein stability index of a GFP-peptide fusion (GPS, HEK-293T) (PSI 1-6); higher = more stable; settings: treatment: DMSO; c terminus: a fixed tail appended;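 further: 24-mer peptide tiles fused after GFP, lentivirally expressed, FACS-sorted into six equal bins by GFP/DsRed ratio, decoded by Illumina sequencing, PSI is the read-weighted mean bin number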
Measured protein stability index by item
MEASURED_ENDPOINT: protein stability index

INSERT INTO assay_data (biopolymer_sequence, endpoint_value) VALUES
  ('AERLGVTFFEVSPLCNFNITESFT [RAB40B]', 2.13),
  ('PKPADFRNPGPGRHRLITQVYLSH [INTS4]', 2.59),
  ('VLCLIVLPLALYTATFAVHFMVLS [POMT2]', 3.17),
  ('NKKHGEAEKKKPKTQIVCKHFLEA [ZC3H15]', 4.09),
  ('ALRKIIKTLAVKNEEIQSFIYSLK [FSD1]', 2.87),
  ('MVHKRSHTGERPFQCNQCGASFTQ [IKZF1]', 2.86),
  ('LHSAIYAARPDVKCVVHIHTPAGA [ADD1]', 2.24),
  ('FLAENSAFPKMALQAKQDGKKDVS [LCOR]', 4.23),
  ('LPIKIAAIIASLTFLYTLLREVIH [STEAP1]', 2.53),
  ('IERSKIVSTMRCKTRQKSEKQMEE [PPEF2]', 4.5),
  ('FMLRYLYSQKESGHSNWLGDPEEP [ATL3]', 2.75),
  ('LFRELWRYHFATGVWHQMGTDGYM [KLHDC10]', 3),
  ('RLVDAVLGAEIRNGMAIIRPPGHH [HDAC6]', 1.96),
  ('NLDKMADNLLAAADKYALERLKVM [SPOPL]', 3.1),
  ('LPISTVREVALLRRLEAFEHPNVV [CDK4]', 2.62),
  ('LVQKDQHSFELDEKALASILLQDH [ATL3]', 3.43),
  ('QKAPMTTVRGLHCMCTVGERLYVI [KLHL13]', 3.21),
  ('DIVDEDVKLMMSTLPKSLSLPTTA [MYBL2]', 3.9),
  ('LKIFTEDLPEVESLPRDRVLGFLI [VPS39]', 2.25),
  ('IDYKTTTILLDGRRVKLQLWDTSG [RAB40B]', 2.42),
  ('MNRAFSRKKDKTWMHTPEALSKHF [GULP1]', 2.69),
  ('KTVSLQIFSVLNSDDAAAPALETQ [SMOC2]', 3.2),
  ('DDEGDSYSDNPCSCSQSHCCSRYL [SPRY1]', 4.45),
  ('LQCDAVNLAFGRRCEELEDARYKL [TEKT4]', 3.74),
  ('LNVATFLDPRYKRLPFLSAFERQQ [ZBED1]', 2.37),
  ('NCVSSVYLYYDPDYSFLSLGVYSA [ATE1]', 3.23),
  ('LQWKSSHFERRDNMNDNFLEGEEE [CHGB]', 5.36);

----------
assay: protein stability index of a GFP-peptide fusion (GPS, HEK-293T) (PSI 1-6); higher = more stable; conditions: treatment: MLN4924 1 uM, 8 h; c terminus: a fixed tail appended
Classify as follows. Reported protein stability index greater than or equal to 4: true (1). Reported protein stability index below: false (0).

INSERT INTO assay_data (biopolymer_sequence, label_value) VALUES
  ('INHGAEVTCKDKKGYTPLHAAASN [ANKRD44]', 'true (1)'),
  ('EIITQSPGRSSVASPRRLSNVSSS [MAP2]', 'false (0)'),
  ('QEGAASKVLGRLRALSDTTEELTV [SLC2A12]', 'true (1)'),
  ('GFTNKQLQSGQEYVFFVLAVMEHA [PTPRD]', 'false (0)'),
  ('VGYGDMHPVTIGGKIVGSLCAIAG [KCNA3]', 'false (0)'),
  ('ENANLQEYVEKETQEKKRLSRTNE [MTUS2]', 'true (1)'),
  ('VTLKYEIKKLIYVHLVIWLLLVAK [JAGN1]', 'false (0)'),
  ('TPKCSSPRGQEGSRQDKPLSPAGS [YJU2B]', 'true (1)'),
  ('LERASATLQDLVFDECGITDDQLL [PRAME]', 'true (1)'),
  ('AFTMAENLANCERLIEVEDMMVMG [SMTNL2]', 'false (0)'),
  ('KAELGALPHDFIDSLEKTDDDKYK [NLN]', 'true (1)'),
  ('LRLLREEEYVAPPRGPLPTLQVVP [TRAF3IP2]', 'false (0)');

----------
experiment: protein stability index of a GFP-peptide fusion (GPS, HEK-293T) (PSI 1-6); higher = more stable; conditions: treatment: DMSO; c terminus: a fixed tail appended
Classify as follows. Reported protein stability index greater than or equal to 3: Satisfied. Reported protein stability index below: Not satisfied.

INSERT INTO results (biopolymer_sequence, label_value) VALUES
  ('YTPTAEDSAQMQNGGPSTPPASPP [ANKRD40]', 'Satisfied'),
  ('LTMNSEDERRDAEERASLAGNRNS [KCNK9]', 'Satisfied'),
  ('AVIKSNHSYCRMFLQRGADTNLGR [ASB7]', 'Not satisfied'),
  ('NTKAEMEMSLAEELNHGRQGENQE [FATE1]', 'Satisfied'),
  ('NSGHTIFNDPFFIVETVCIVWFSF [KCNA4]', 'Satisfied'),
  ('GVSREEIEREVNILREIRHPNIIT [DAPK3]', 'Not satisfied'),
  ('DASEAHESSSRGEAGAPGEEDIQG [CHGB]', 'Satisfied'),
  ('KSTMDAISAEGFTDIDIDTLCAVL [BTBD1]', 'Not satisfied'),
  ('IAVKTLGIGKNVICDRTATPLDAF [GFOD1]', 'Not satisfied'),
  ('LQQIQGLIGGLEAQLSELRCEMEA [KRT15]', 'Satisfied'),
  ('EDQVPALEAPEDIGSTSESKDWEE [MIA2]', 'Satisfied'),
  ('PDLESGSESGADTISVNQTRVNLS [DLC1]', 'Satisfied'),
  ('DGIPQVYYFGPCGKYNAMVLELLG [CSNK1G3]', 'Not satisfied'),
  ('KLWNPRNFKAHVSPHEMLQAVVLC [USP39]', 'Not satisfied'),
  ('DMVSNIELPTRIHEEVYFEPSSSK [MIA2]', 'Satisfied'),
  ('YQYFVCPVEYRSDVNSFVTECEPS [CDS1]', 'Not satisfied'),
  ('VTDCKHTEDVGVVCSDKRIPGFKF [LOXL2]', 'Satisfied'),
  ('QSSQRMRQNLKLLVEETSCQQNMI [CEP70]', 'Satisfied'),
  ('PPSSGNGPAPPPLPPALVPAGGLA [WAS]', 'Satisfied'),
  ('KTRQKSEKQMEEKRRANQKSSAQG [PPEF2]', 'Satisfied'),
  ('ILREFEELHRRLDEEQQVLLSRLE [TRIM39]', 'Satisfied'),
  ('RNERSIQEKLQVLMAEGLLPAVKV [SMG5]', 'Not satisfied'),
  ('SDFEWLKNELERDSKIVVPPLPGK [SNX12]', 'Satisfied'),
  ('KKKSVAMHTNYLSACSFTNSDMQI [GNB5]', 'Not satisfied'),
  ('KAELGALPHDFIDSLEKTDDDKYK [NLN]', 'Satisfied'),
  ('AAWCLHHICTNYNSVCSKFRKEIK [RHOBTB1]', 'Not satisfied');

----------
assay: protein stability index of a GFP-peptide fusion (GPS, HEK-293T) (PSI 1-6); higher = more stable; details: treatment: DMSO; c terminus: a fixed tail appended
Classify as follows. Reported protein stability index greater than or equal to 3: Satisfied. Reported protein stability index below: Not satisfied.

INSERT INTO results (biopolymer_sequence, label_value) VALUES
  ('LPLPEQIHKASATIIEPAGESDNP [INTS4]', 'Satisfied'),
  ('DMKSLKQVLEMKNQQIHEQEKKIL [MTUS2]', 'Satisfied'),
  ('FLEQRPQSPTLEFLLRNSQRTVGQ [EDARADD]', 'Satisfied'),
  ('SAENIPGCSSSGSCSQGSGILHYA [CRY1]', 'Not satisfied'),
  ('NSRRNINYRSFEPILRLLPQGISP [ZER1]', 'Not satisfied'),
  ('FSTQYRCFSVSMLAGPNDRSDVEK [UFD1]', 'Not satisfied'),
  ('VSAYVDTTADLDRKLSFSHSDHSS [SPATS1]', 'Satisfied'),
  ('DVVALLINHGAEVTCKDKKGYTPL [ANKRD44]', 'Not satisfied'),
  ('DGEGAGPGEQGGGKLVLSSLPKRL [ESRRA]', 'Satisfied'),
  ('ATTNACEKPIGSCVTNPCGPRSRC [KRT33B]', 'Satisfied'),
  ('RHWCMKHDELLAEHIKSLLIKNNS [INTS3]', 'Not satisfied'),
  ('FSVLMEKLCKKGLAATTSMAYAKL [FANCE]', 'Satisfied'),
  ('AAKFPSGSQRARVVNTDHGSPEQL [SDE2]', 'Satisfied');
